Ref: patent US10363239B2

Tested on: mu opiate receptor (MOR)
Experiment: MOR agonist activity using [35S]GTPγS binding assay in striatal membranes
Type: biochemical
Details: Series C-1; 1 μM compound + β-FNA, relative to DAMGO + BFNA
Recorded measurements of % DAMGO + BFNA, one per entry
Respond numerically; units are % and should not be typed.

May I ask what % DAMGO + BFNA has been recorded for COc1ccc(S(=O)(=O)N2CCC3(OCCN3S(=O)(=O)c3ccc(OC)cc3)C3CCCCC32)cc1 (stereo not shown) [Compound C0144M] ?
137.9

May I ask what % DAMGO + BFNA has been recorded for `COc1cc(S(=O)(=O)N2CCC3(CC2)OCCN3S(=O)(=O)c2cc(OC)c(OC)c(OC)c2)cc(OC)c1OC` ?
149.9

May I ask what % DAMGO + BFNA has been recorded for CC(=O)c1ccc(S(=O)(=O)N2CCC3(CC2)NCC(=O)N3Cc2ccccc2)cc1 [Compound C0082M] ?
181.1

More entries:
May I ask what % DAMGO + BFNA has been recorded for `O=S(=O)(c1ccc(Br)c(C(F)(F)F)c1)N1CCC2(CC1)OCCN2S(=O)(=O)c1ccc(Br)c(C(F)(F)F)c1` ?
621.4

May I ask what % DAMGO + BFNA has been recorded for O=S(=O)(c1ccc2ccccc2c1)N1CCC2(CC1)OCCN2S(=O)(=O)c1ccc2ccccc2c1 [Compound C0140M] ?
211.2

May I ask what % DAMGO + BFNA has been recorded for `O=C(OCc1ccccc1)c1ccc(S(=O)(=O)N2CCC3(CC2)OCCN3S(=O)(=O)c2ccc(C(=O)OCc3ccccc3)cc2)cc1` ?
666.3

May I ask what % DAMGO + BFNA has been recorded for `COc1ccc(S(=O)(=O)N2CCC3(CC2)OCCN3S(=O)(=O)c2ccc(OC)cc2)cc1` ?
129.5
